meta.source: the supplement of paper PMC8253809

System: DIPGX29 (H3.3 K27M diffuse intrinsic pontine glioma line)
Test protocol: growth inhibition (% activity, log2 RLU normalised to DMSO / staurosporine); higher = more growth inhibition
Measurement context: 33 µM
Measurement label: growth inhibition (%)
# output: bare number, implied unit %

Completed entries (count: 4):
{"columns": ["Compound", "Measure unit", "growth inhibition"],
 "data": [
  ["CCN(CC)CCCC(C)Nc1ccnc2cc(Cl)ccc12 (stereo not given)", "%", 2.54],
  ["C#C[C@]1(OC(C)=O)CC[C@H]2[C@@H]3CCC4=C[C@@H](OC(C)=O)CC[C@@H]4[C@H]3CC[C@@]21C", "%", 0.289],
  ["COc1cc(NS(=O)(=O)c2ccc(N)cc2)nc(OC)n1", "%", 1.59],
  ["COc1nc(C)nc(Cl)c1NC1=NCCN1", "%", -1.42]
]}

Consider the compound Nc1nc2c(ncn2COC(CO)CO)c(=O)[nH]1 and give its measured growth inhibition.
-0.593

Would you kindly repeat that for CCC1=C(C)CN(C(=O)NCCc2ccc(S(=O)(=O)NC(=O)N[C@H]3CC[C@H](C)CC3)cc2)C1=O ?
1.44

Would you kindly repeat that for O=C1[C@H](CC[C@H](O)c2ccc(F)cc2)[C@@H](c2ccc(O)cc2)N1c1ccc(F)cc1 ?
0.15

Would you kindly repeat that for O=C(c1ccc(OCCN2CCCCC2)cc1)c1c(-c2ccc(O)cc2)sc2cc(O)ccc12 ?
8.18

Would you kindly repeat that for Nc1cc(C(Cl)=C(Cl)Cl)c(S(N)(=O)=O)cc1S(N)(=O)=O ?
0.128

Would you kindly repeat that for CC1CC(OC(=O)C(O)c2ccccc2)CC(C)(C)C1 (stereo not given) ?
-0.681

Would you kindly repeat that for COC1C(O)CC(=O)OC(C)CC=CC=CC(OC2CCC(N(C)C)C(C)O2)C(C)CC(CC=O)C1OC1OC(C)C(OC2CC(C)(O)C(O)C(C)O2)C(N(C)C)C1O (stereo not given) ?
0.981

Would you kindly repeat that for CC1(C)S[C@@H]2[C@H](NC(=O)C(C(=O)O)c3ccccc3)C(=O)N2[C@H]1C(=O)O (stereo not given in full) ?
0.227

Would you kindly repeat that for CC(=O)OCC(=O)[C@@]1(O)CC[C@H]2[C@@H]3CCC4=CC(=O)C=C[C@]4(C)[C@@]3(Cl)[C@@H](Cl)C[C@@]21C ?
0.772

Would you kindly repeat that for CCOc1nc2cccc(C(=O)OCc3oc(=O)oc3C)c2n1Cc1ccc(-c2ccccc2-c2noc(=O)[nH]2)cc1 ?
0.179

Would you kindly repeat that for C[C@]12C=CC(=O)C=C1CC[C@@H]1[C@@H]2[C@@H](O)C[C@@]2(C)[C@H]1CC[C@]2(O)C(=O)CO ?
0.548

* * *

System: DIPGX7 (H3.3 K27M diffuse intrinsic pontine glioma line)
Test protocol: growth inhibition (% activity, log2 RLU normalised to DMSO / staurosporine); higher = more growth inhibition
Measurement context: 33 µM
Measurement label: growth inhibition (%)
# output: bare number, implied unit %

Completed entries (count: 5):
{"columns": ["Compound", "Measurement label", "Observed value"],
 "data": [
  ["C[C@]12CC[C@@H]3c4ccc(O)cc4C[C@@H](CCCCCCCCC[S+]([O-])CCCC(F)(F)C(F)(F)F)[C@H]3[C@@H]1CC[C@@H]2O (some centres undefined)", "growth inhibition", 0.804],
  ["CCCc1nc(C)c2c(=O)nc(-c3cc(S(=O)(=O)N4CCN(CC)CC4)ccc3OCC)[nH]n12", "growth inhibition", -0.617],
  ["O=C(NC[C@H]1CN(c2ccc(N3CCOCC3=O)cc2)C(=O)O1)c1ccc(Cl)s1", "growth inhibition", -0.155],
  ["CC(=O)O[C@]1(C(C)=O)CC[C@H]2[C@@H]3C[C@H](C)C4=CC(=O)C=C[C@]4(C)[C@@]3(F)[C@@H](O)C[C@@]21C", "growth inhibition", 0.393],
  ["CC(C)(CO)[C@@H](O)C(=O)NCCC(=O)O", "growth inhibition", -0.818]
]}

Consider the compound CN(C)[C@@H]1C(O)=C(C(=O)NCN2CCCC2)C(=O)[C@@]2(O)C(O)=C3C(=O)c4c(O)cccc4[C@@](C)(O)[C@H]3C[C@@H]12 and give its measured growth inhibition.
-0.844

Would you kindly repeat that for Cc1ccc(-n2[nH]c(C)c(N=Nc3cccc(-c4cccc(C(=O)O)c4)c3O)c2=O)cc1C ?
0.213

Would you kindly repeat that for CCCc1nc(C(C)(C)O)c(C(=O)OCc2oc(=O)oc2C)n1Cc1ccc(-c2ccccc2-c2nnn[nH]2)cc1 ?
-0.622

Would you kindly repeat that for COc1ccc2c(c1OC)C(=O)O[C@@H]2[C@H]1c2c(cc3c(c2OC)OCO3)CCN1C ?
-0.697

Would you kindly repeat that for CN1CCN(c2c(F)cc3c(=O)c(C(=O)O)cn4c3c2OCN4C)CC1 ?
3.3

Would you kindly repeat that for CCCCc1ncc(/C=C(\Cc2cccs2)C(=O)O)n1Cc1ccc(C(=O)O)cc1 ?
-1.23

Would you kindly repeat that for CC(C)C[C@H](NC(=O)[C@H](CCc1ccccc1)NC(=O)CN1CCOCC1)C(=O)N[C@@H](Cc1ccccc1)C(=O)N[C@@H](CC(C)C)C(=O)[C@@]1(C)CO1 ?
55.8

Would you kindly repeat that for CCc1c(Cl)c(O)c(Cl)c(O)c1C(=O)O[C@H]1[C@H](O)[C@H](OC)[C@H](OC/C2=C\C=C\C[C@H](O)/C(C)=C/[C@H](CC)[C@@H](O[C@@H]3OC(C)(C)[C@@H](OC(=O)C(C)C)[C@H](O)[C@@H]3O)/C(C)=C/C(C)=C/C[C@@H]([C@@H](C)O)OC2=O)O[C@@H]1C ?
0.835

Would you kindly repeat that for CC(=O)[C@H]1CC[C@H]2[C@@H]3C=CC4=CC(=O)CC[C@@]4(C)[C@@H]3CC[C@]12C ?
-0.136

Would you kindly repeat that for CC[C@H]1OC(=O)[C@H](C)[C@@H](O[C@H]2C[C@@](C)(OC)[C@@H](O)[C@H](C)O2)[C@H](C)[C@@H](O[C@@H]2O[C@H](C)C[C@H](N(C)C)[C@H]2O)[C@](C)(OC)C[C@@H](C)C(=O)[C@H](C)[C@@H](O)[C@]1(C)O ?
-2.66

Would you kindly repeat that for c1ccc2[nH]c(-c3cscn3)nc2c1 ?
-0.782

* * *

Tested on: HGGX6 (H3.3 G34R paediatric high-grade glioma line)
Test protocol: growth inhibition (% activity, log2 RLU normalised to DMSO / staurosporine); higher = more growth inhibition
Measurement context: 33 µM
Measurement label: growth inhibition (%)
# output: bare number, implied unit %

Completed entries (count: 3):
{"columns": ["Molecule", "System tested", "Measure unit", "growth inhibition"],
 "data": [
  ["CCCN1CCCC[C@H]1C(=O)Nc1c(C)cccc1C", "HGGX6", "%", 1.44],
  ["CN(C)C(=O)C(CCN1CCC(O)(c2ccc(Cl)cc2)CC1)(c1ccccc1)c1ccccc1", "HGGX6", "%", 9.1],
  ["C[C@]12CC[C@@H]3c4ccc(O)cc4CC[C@H]3[C@@H]1C[C@@H](O)[C@@H]2O", "HGGX6", "%", -3.15]
]}

Consider the molecule CC1(C)Cc2c(-c3ccccc3)c(-c3ccc(Cl)cc3)c(CC(=O)O)n2C1 and give its measured growth inhibition.
-0.994

Would you kindly repeat that for CC(C)(Sc1cc(C(C)(C)C)c(O)c(C(C)(C)C)c1)Sc1cc(C(C)(C)C)c(O)c(C(C)(C)C)c1 ?
-1.24

Would you kindly repeat that for CCCCC(=O)N(Cc1ccc(-c2ccccc2-c2nnn[nH]2)cc1)[C@H](C(=O)O)C(C)C ?
-0.244

* * *

Below, each entry is listed with its recorded growth inhibition.
Test system: HGGX6
Test protocol: growth inhibition (% activity, log2 RLU normalised to DMSO / staurosporine); higher = more growth inhibition
Measurement context: 33 µM
# output: bare number, implied unit %

Completed entries (count: 3):
{"columns": ["Compound", "growth inhibition / %"],
 "data": [
  ["CC1Cc2ccccc2N1NC(=O)c1ccc(Cl)c(S(N)(=O)=O)c1 (stereo not drawn)", 0.259],
  ["CC(CN(C)C)CN1c2ccccc2CCc2ccccc21 (stereo not drawn)", -2.56],
  ["COc1c(N2C[C@@H]3CCCN[C@@H]3C2)c(F)cc2c(=O)c(C(=O)O)cn(C3CC3)c12", 2.07]
]}

Consider the compound CC(NC(=O)Cc1cc(F)cc(F)c1)C(=O)NC(C(=O)OC(C)(C)C)c1ccccc1 (stereo not drawn) and give its measured growth inhibition.
1.3

Would you kindly repeat that for CCCCCOC(=O)Nc1nc(=O)n([C@@H]2O[C@H](C)[C@@H](O)[C@H]2O)cc1F ?
0.0555

Would you kindly repeat that for Cc1c(Cl)cccc1Nc1ccccc1C(=O)O ?
2.44

Would you kindly repeat that for Cc1cnc(NC(=O)C2=C(O)c3ccccc3S(=O)(=O)N2C)s1 ?
-2.36

Would you kindly repeat that for CC1=C(C(=O)OC(C)C)C(c2cccc([N+](=O)[O-])c2)C(C(=O)OC2CN(C(c3ccccc3)c3ccccc3)C2)=C(N)N1 (stereo not drawn) ?
15.6
